From: ChEMBL document CHEMBL1811868

Documented pIC50 across a set of molecules
- System: Pseudomonas aeruginosa
- protocolSummary: Antimicrobial activity against Pseudomonas aeruginosa PA14 assessed as inhibition of biofilm formation after 24 hrs by spectrophotometry
- Type: functional, organism-based
- studyConditions: PA14, 24 h
Quick note: pIC50 values are minus log10 of concentrations in mol/L.

The cases that follow already have their pIC50 on record.
CCCCCCCCCCN1c2nccc[n+]2C[C@@]1(O)c1ccccc1 | 4.52
O[C@@]1(c2ccc(Cl)cc2)C[n+]2cccnc2N1C1CCCCCC1 | 4.12
CCCCCCCCCN1c2nccc[n+]2C[C@@]1(O)c1ccccc1 | 4.57

So for CCCCCNc1ncc(-c2ccc(Cl)cc2)[nH]1 , the logged pIC50 turned out to be 5.20

// CC(C)CNc1ncc(-c2ccc(Br)cc2)[nH]1 : pIC50 value = 5.92

In plain terms, CCCCCCN1c2nccc[n+]2C[C@@]1(O)c1ccc(Cl)cc1 has a documented pIC50 of 4.10

response.value for CCCCCN1c2nccc[n+]2C[C@@]1(O)c1ccc(Cl)cc1 (field: pIC50) = 3.79

###

Reported IC50 values for the following compounds.
- Test system: Pseudomonas aeruginosa
- protocolSummary: Antimicrobial activity against Pseudomonas aeruginosa PA14 assessed as inhibition of biofilm formation after 24 hrs by spectrophotometry
- Format: functional, organism-based
- studyConditions: PA14, 24 h
Please respond with the number in µM and leave the unit unwritten.

CCCCNc1ncc(-c2ccccc2)[nH]1 | 31.8
Clc1ccc(-c2cnc(NC3CCCC3)[nH]2)cc1 | 13.5
CCCCCCCCNc1ncc(-c2ccc(Cl)cc2)[nH]1 | 1.6
CNc1ncc(-c2ccc(F)cc2)[nH]1 | 25.2
CCCCCCCCN1c2nccc[n+]2C[C@@]1(O)c1ccc([N+](=O)[O-])cc1 | 12.1

get_value(item= COc1ccc(-c2cnc(NC3CCCCC3)[nH]2)cc1 , readout=IC50) returns 54.8

Lab note: O=[N+]([O-])c1ccc([C@]2(O)C[n+]3cccnc3N2C2CCCCCCCCCCC2)cc1 gave IC50 of 5.4

The recorded IC50 for CCCCCCCCN1c2nccc[n+]2C[C@@]1(O)c1ccc(-c2ccc([N+](=O)[O-])cc2)cc1 is 215

The compound listed as CC(C)Nc1ncc(-c2ccccc2)[nH]1 has a reported IC50 of 261

// field: IC50; key: O[C@@]1(c2ccc(Cl)cc2)C[n+]2cccnc2N1C1CCCCC1 ; value = 16.4

// field: IC50; key: CCCCCCCCN1c2nccc[n+]2C[C@@]1(O)c1ccccc1 ; value = 14.4

Record summary for O[C@@]1(c2ccc(Cl)cc2)C[n+]2cccnc2N1C1CC1 : reported IC50 = 179

IC50 recorded for this compound, CCCCCCCCCCN1c2nccc[n+]2C[C@@]1(O)c1ccc(Cl)cc1 , is 83.3

For record O[C@@]1(c2ccccc2)C[n+]2cccnc2N1C1CCCCCCC1 the listed IC50 is 48.6

Quick note, IC50 for CN1c2nccc[n+]2C[C@@]1(O)c1ccc(Cl)cc1 landed at 170

The measured IC50 associated with Fc1ccc(-c2cnc(NCc3ccc4c(c3)OCO4)[nH]2)cc1 reads 456

compound CC(C)CN1c2nccc[n+]2C[C@@]1(O)c1ccc(Cl)cc1 , IC50 observed: 83.4

So, O[C@@]1(c2ccccc2)C[n+]2cccnc2N1C1CCCCC1 ? Its IC50 was 22.4

The reported IC50 of the compound O[C@@]1(c2ccccc2)C[n+]2cccnc2N1C1CCCCCC1 was 191

Per the record, CC(C)(C)N1c2nccc[n+]2C[C@@]1(O)c1ccc([N+](=O)[O-])cc1 has IC50 of 41.5

Field IC50 (entry O[C@@]1(c2ccc(Cl)cc2)C[n+]2cccnc2N1C1CCC1 ) reads 372

According to the records, this compound CCCCCCCCN1c2nccc[n+]2C[C@@]1(O)c1ccc(SC)cc1 displays IC50 of 36.5

Record summary for CC(C)CNc1ncc(-c2ccc(Cl)cc2)[nH]1 : reported IC50 = 0.9

###

- Tested on: Pseudomonas aeruginosa
- protocolSummary: Antimicrobial activity against Pseudomonas aeruginosa PA14 assessed as inhibition of biofilm formation after 24 hrs by spectrophotometry
- Type: functional, organism-based
- studyConditions: PA14, 24 h
measuredAttribute: IC50 (µM)
Value expressed in µM; do not type the unit.

c1ccc(-c2cnc(NC3CCCC3)[nH]2)cc1 | 33.8
CCCCCNc1ncc(-c2ccc(Cl)c(Cl)c2)[nH]1 | 0.7
CCCCNc1ncc(-c2ccc(Br)cc2)[nH]1 | 9.8

IC50 recorded for this compound, CCCNc1ncc(-c2ccc(Cl)c(Cl)c2)[nH]1 , is 27.7

Please fill in: IC50 reported for O=[N+]([O-])c1ccc(-c2cnc(NC3CCCCC3)[nH]2)cc1 = 25

###

- Test system: Pseudomonas aeruginosa
- protocolSummary: Antimicrobial activity against Pseudomonas aeruginosa PA14 assessed as inhibition of biofilm formation after 24 hrs by spectrophotometry
- Format: functional, organism-based
- studyConditions: PA14, 24 h
Recorded IC50 determines the group label, using low group: < 10 µM; middle group: ≥ 10 µM and < 20 µM; high group: ≥ 20 µM

Query string: Assign a category based on measured IC50 for O=[N+]([O-])c1cccc(-c2cnc(NC3CCCCC3)[nH]2)c1 and give only the class name.
Result string: low group

Query string: Please indicate the class for CCCCCCCCNc1ncc(-c2ccc(Br)cc2)[nH]1 based on its IC50.
Result string: high group

Query string: Category of CCCCCCCN1c2nccc[n+]2C[C@@]1(O)c1ccc(Cl)cc1 :
Result string: high group

Query string: // return the class label for CCCCCCN1c2nccc[n+]2C[C@@]1(O)c1ccc([N+](=O)[O-])cc1
Result string: middle group

###

Catalogue of IC50 readings, one per entry.
- Test system: Salmonella typhimurium
- protocolSummary: Antimicrobial activity against Salmonella Typhimurium ATCC 14028 assessed as inhibition of biofilm formation after 24 hrs by spectrophotometry
- Type: functional, organism-based, Salmonella enterica subsp. enterica serovar Typhimurium
- studyConditions: Salmonella enterica, ATCC 14028, 24 h

CCCCCCCCCCCN1c2nccc[n+]2C[C@@]1(O)c1ccc(Cl)cc1.[Br-] | 61.9 µM

The recorded IC50 for CC(C)CN1c2nccc[n+]2C[C@@]1(O)c1ccc(Br)cc1 is 5.2 µM

Form field IC50, entry CCCCCCCCNc1ncc(-c2ccc(Cl)cc2)[nH]1 : > 400 µM

The recorded IC50 for entry O=[N+]([O-])c1ccc(-c2cnc(NC3CCCC3)[nH]2)cc1 equals 11.8 µM

The compound CC(C)CNc1ncc(-c2ccccc2)[nH]1 showed IC50 equal to 4.9 µM

The compound CN1c2nccc[n+]2C[C@@]1(O)c1ccc(Cl)cc1 showed IC50 equal to 225 µM

###

- Tested on: Salmonella typhimurium
- protocolSummary: Antimicrobial activity against Salmonella Typhimurium ATCC 14028 assessed as inhibition of biofilm formation after 24 hrs by spectrophotometry
- Format: functional, organism-based, Salmonella enterica subsp. enterica serovar Typhimurium
- studyConditions: Salmonella enterica, ATCC 14028, 24 h
measuredAttribute: log10(IC50) (log10 of the value in µM)
Short version: log10 scale, IC50, µM.

Below, 5 compounds whose answers are already recorded.
CCCCCCCCCN1c2nccc[n+]2C[C@@]1(O)c1ccccc1 | 0.92
CCCCCCN1c2nccc[n+]2C[C@@]1(O)c1ccc(Cl)cc1 | 1.14
O[C@@]1(c2ccccc2)C[n+]2cccnc2N1C1CCCCCCC1 | 1.77
CCCCCCCCCN1c2nccc[n+]2C[C@@]1(O)c1ccc(Cl)cc1 | 1.26
CCCCCCCCNc1ncc(-c2cccc3ccccc23)[nH]1 | 2.38

Kindly consider the entry below.
Lab book: log10(IC50) of COc1cccc(CNc2ncc(-c3ccc([N+](=O)[O-])cc3)[nH]2)c1 noted as 1.28

###

- Tested on: Salmonella typhimurium
- protocolSummary: Antimicrobial activity against Salmonella Typhimurium ATCC 14028 assessed as inhibition of biofilm formation after 24 hrs by spectrophotometry
- Assay type: functional, organism-based, Salmonella enterica subsp. enterica serovar Typhimurium
- studyConditions: Salmonella enterica, ATCC 14028, 24 h
measuredAttribute: pIC50
API: returns pIC50 as number; meaning -log10 of concentration in mol/L.

Value of pIC50 reported for the compound CC(C)N1c2nccc[n+]2C[C@@]1(O)c1ccccc1 is 3.27

Per the record, CCCCCCCN1c2nccc[n+]2C[C@@]1(O)c1ccc(Cl)cc1 has pIC50 of 5.17

Reported pIC50 for Clc1ccc(-c2cnc(NCc3ccccc3)[nH]2)cc1 was 4.51

Entry CC(C)(C)N1c2nccc[n+]2C[C@@]1(O)c1ccc([N+](=O)[O-])cc1 ; pIC50 = 3.68

The recorded pIC50 for entry COc1ccc(-c2cnc(NC3CCCCC3)[nH]2)cc1 equals 3.42

Data point: CCCCNc1ncc(-c2ccc(OC)cc2)[nH]1 ; pIC50 = 4.28
